# Assay Overview: Pharmacokinetics in serum of mice after single intravenous injection (LC-MS/MS)
# Assay type: in vivo, C57BL/6J mice
# Test Parameters: male, C57BL/6J, mouse, iv, 1000 mg/kg i.v., 0 to 240 min sampling, read-out: AUC (converted)
# Protocol: Six- to eight-week-old male C57BL/6J (20–25 g) mice were purchased from Sino-British SIPPR/BK Lab Animal Ltd (Shanghai, China). […] PEG-car or L-carnosine levels in serum and tissues were determined by liquid chromatography tandem-mass spectrometry (LC-MS/MS). […] The concentrations were measured by a UHPLC system (Shimadzu LC-40D XS, Japan) coupled with electrospray ionization (ESI) and triple quadrupole-ion trap mass spectrometry (AB SCIEX QTRAP® 6500+, Singapore). […]

{"columns": ["Molecule", "AUC / µg·h/mL"],
 "data": [
  ["NCCC(=O)N[C@@H](Cc1cnc[nH]1)C(=O)O [L-carnosine, reference compound]", 1080]
]}

###

# Assay Overview: Pharmacokinetics in serum of mice after single intravenous injection (LC-MS/MS)
# Format: in vivo, C57BL/6J mice
# Test Parameters: male, C57BL/6J, mouse, iv, 1000 mg/kg i.v., read-out: Vss

{"columns": ["Molecule", "Vd / L/kg"],
 "data": [
  ["NCCC(=O)N[C@@H](Cc1cnc[nH]1)C(=O)O [L-carnosine, reference compound]", 0.606]
]}

###

# Assay Overview: Pharmacokinetics in kidney of mice after single intravenous injection (LC-MS/MS)
# Type: in vivo, C57BL/6J mice
# Test Parameters: male, C57BL/6J, mouse, iv, 1000 mg/kg i.v. single injection, noncompartmental, naive pooled, read-out: Half-Life

{"columns": ["Molecule", "half-life (h)"],
 "data": [
  ["NCCC(=O)N[C@@H](Cc1cnc[nH]1)C(=O)O [L-carnosine, reference compound]", 1.75]
]}

###

# Assay Overview: Pharmacokinetics in kidney of mice after single intravenous injection (LC-MS/MS)
# Assay type: in vivo, C57BL/6J mice
# Test Parameters: male, C57BL/6J, mouse, iv, 1000 mg/kg i.v., at 5 min
Metric: Cmax (ng/g)

{"columns": ["Molecule", "Metric", "Numeric Value"],
 "data": [
  ["NCCC(=O)N[C@@H](Cc1cnc[nH]1)C(=O)O [L-carnosine, reference compound]", "Cmax", "5.91e+06"]
]}

###

# Assay Overview: Pharmacokinetics in serum of mice after single intravenous injection (LC-MS/MS)
# Assay type: in vivo, C57BL/6J mice
# Test Parameters: male, C57BL/6J, mouse, iv, 1000 mg/kg i.v. single injection, noncompartmental, naive pooled, read-out: Half-Life
# Description: Six- to eight-week-old male C57BL/6J (20–25 g) mice were purchased from Sino-British SIPPR/BK Lab Animal Ltd (Shanghai, China). […] PEG-car or L-carnosine levels in serum and tissues were determined by liquid chromatography tandem-mass spectrometry (LC-MS/MS). […] The concentrations were measured by a UHPLC system (Shimadzu LC-40D XS, Japan) coupled with electrospray ionization (ESI) and triple quadrupole-ion trap mass spectrometry (AB SCIEX QTRAP® 6500+, Singapore). […]
Metric: half-life (h)

{"columns": ["Compound", "Metric", "Numeric Value"],
 "data": [
  ["NCCC(=O)N[C@@H](Cc1cnc[nH]1)C(=O)O [L-carnosine, reference compound]", "half-life", 1.03]
]}
